System: NOMO1
assay: AUC of viability dose-response curve (% viability x log10 dose units); higher = less sensitive
measurement.conditions: RPMI 5 mM glucose + 10% FBS; 48 h
Task for the reader: assign each of the following compounds its reported AUC of viability dose-response curve.
Keep it simple and answer with nothing but the number.

# AUC of viability dose-response curve of Cc1c(N)nc([C@H](CC(N)=O)NC[C@@H](N)C(N)=O)nc1C(=O)N[C@H](C(=O)N[C@@H](C)[C@H](O)[C@@H](C)C(=O)N[C@@H](C(=O)NCCc1nc(-c2nc(C(=O)NCCC[S+](C)C)cs2)cs1)[C@@H](C)O)C(O[C@H]1O[C@H](CO)[C@H](O)[C@@H](O)[C@H]1O[C@H]1O[C@H](CO)[C@@H](O)[C@H](OC(N)=O)[C@@H]1O)c1c[nH]cn1 (stereo not given in full) = 416

Input `C[C@]12CC[C@H]3[C@@H](CC(=C)\C4=C\C(=O)\C=C/[C@]34C)[C@@H]1CCC2=O` . Output AUC of viability dose-response curve: 429

response.value for `CCCOc1ccc(C(=O)OCCN(CC)CC)cc1N` (field: AUC of viability dose-response curve) = 468

Value of measured AUC of viability dose-response curve for the entry `CO[C@H]1/C=C/O[C@@]2(C)Oc3c(C)c(O)c4c(c3C2=O)C2=NC3(CCN(CC(C)C)CC3)NC2=C(NC(=O)/C(C)=C/C=C/[C@H](C)[C@H](O)[C@@H](C)[C@@H](O)[C@@H](C)[C@H](OC(C)=O)[C@@H]1C)C4=O` : 476

Noted for `CNC[C@H](O)[C@@H](O)[C@H](O)[C@H](O)CO` : its AUC of viability dose-response curve reads 473

---

Test system: NOMO1
assay: cell viability relative to DMSO control; higher = less cytotoxic
measurement.conditions: RPMI 5 mM glucose + 10% dialyzed FBS; 48 h; 1.71 µM
readout.type: cell viability (%)
Unit % implied. Number only.

Kindly note: NOMO1, CC(C)C1CCC(C(=O)N[C@H](Cc2ccccc2)C(=O)O)CC1 (some centres not stated) , cell viability value reported: 82.6

Readout cell viability for `O=C(O)c1ccc(O)c2ncc(N3CCOCC3)cc12` , test system NOMO1, was 102

Tested system NOMO1; cell viability recorded for `CN1C(=O)/C(=C(NC2=CC=C(I)C=C2F)\C3=C1\N=C/N(C[C@@H](O)CO)C3=O)F` was 33.7

Record `OC[C@H]1O[C@H](C[C@@H]1O)N2/C=C(C(=O)NC2=O)/C(F)(F)F` ; system NOMO1; cell viability = 96

The observed cell viability for `CNC(=O)c1ccc2c(c1)NC(=O)/C2=C(\Nc1cccc(CN(C)C)c1)c1ccccc1` when tested with NOMO1 stands at 89.1

Record for `CCOC(=O)c1c(C)n(C)c2ccc(O)cc12` under target or system NOMO1: cell viability reported as 120

Reported NOMO1 cell viability for item `Oc1cc(-c2nc(-c3ccccc3)[nH]c2-c2ccncc2)ccc1Cl` was 92.1

Item: `Cc1nc(-c2ccc(OCC(C)C)c(C#N)c2)sc1C(=O)O` | System: NOMO1 | cell viability: 125

Entry `CC(=O)SC[C@@H](C)C(=O)N1CCC[C@H]1C(=O)N[C@@H](Cc1ccccc1)C(=O)O` ; assay system NOMO1; cell viability recorded at 97.3

// compound `CCCN[C@H]1CCc2nc(N)sc2C1` , assay NOMO1, cell viability value: 107

cell viability for NOMO1 with input CN(C)CCCC1(c2ccc(F)cc2)OCc2cc(C#N)ccc21 (configuration not stated) equals 82.2

Tested on NOMO1, the item `CNc1nc(-c2ccc3c(N)n[nH]c3c2)cc(N2C[C@@H](C(=O)NC3CCCCC3)CC[C@H]2C)n1` showed cell viability equal to 70.8

Field cell viability (NOMO1), entry `C[S+](=O)([O-])Oc1ccc2c(NC(N)=O)c(C(=O)c3ccc(Cl)cc3Cl)oc2c1` : 128

Test item `CN(C)C/C=C/C(=O)Nc1ccc(C(=O)Nc2cccc(Nc3ncc(Cl)c(-c4c[nH]c5ccccc45)n3)c2)cc1` ; NOMO1; reported cell viability was 3.8

Given the compound CCC(CCCC)COC(=O)C(\C#N)=C(\c1ccccc1)c2ccccc2 (configuration not stated) and test system NOMO1, the measured cell viability is 91.5

Lab entry: NOMO1 assay, compound `Cc1cn2cc(C(=O)N(C)CCO)cc(N[C@@H]3CCOc4cccc(C)c43)c2n1` , cell viability = 117

Given the compound C[C@]12CCC3c4ccc(O)cc4CCC3C1CCC2=O (some centres not stated) and test system NOMO1, the measured cell viability is 84.4
